# Test system: CRL-7250
# experimental-details: Cytotoxic Profiling of Annotated Libraries Using Quantitative High-Throughput Screening (AID 1296008); further: nearly all actives have a fitted effect of over 60% in size
# assay-context: Five cell lines viability, CellTiter-Glo ATP luminescence, 48-72 h
Records with an inconclusive call do not appear. Calls of active or inactive are those of the source. The call rests on the fitted dose curve; in most records, active means well fitted inhibition curve with a large enough effect; inconclusive means small, poorly fitted or top-dose-only effect; inactive means flat fitted curve, though single readings scatter.
Result category, one only: active, inactive

Solved cases below.
# molecule, class
measured = [
    ("COc1ccc2[nH]c3c(-c4cccc5ccccc45)nccc3c2c1", "active"),
    ("COc1cc2c(NC3CCN(CC4CCCCC4)CC3)nc(N3CCCN(C(C)C)CC3)nc2cc1OCCCN1CCCCC1", "active"),
]

Request: # fetch the recorded call for CC(O)CCC1C(CO[C@@H]2O[C@H](CO)[C@@H](O)[C@H](O)[C@H]2O)CC(O)CC1(C)C (stereo partly drawn) here
Response: inactive

Request: Repeat with Nc1ccc(/C=C/C(=O)NCc2cc3cc(-c4ccc(C(=O)N5CCC(F)(F)CC5)cc4)cc(-c4ccc(F)cc4)c3o2)cn1
Response: active

Request: CCC(C)C(=O)O[C@H]1CCC=C2C=C[C@H](C)[C@H](CC[C@@H](O)C[C@@H](O)CC(=O)O)[C@H]21 (stereo partly drawn)
Response: active
